- study.target: human Y1 receptor (human, UniProt P25929)
- assay.notes: 125I-PYY displacement, COS-7 membranes; tested only up to 100 nM
pKi: −log10 of the molar value.
measured.metric: pKi

Which pKi value is on record for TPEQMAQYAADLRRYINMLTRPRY [human PP13-36] ?
< 7.00
